- EXPERIMENT: in vitro
- RUN_CONDITIONS: human, hela cells, % viability
Output Y for records whose viability at 28.5 h, 10 µM is lower than 90%, N for records at or above 90%.

>>> group_label("Cc1cc(C(C)NC(=O)C2CCCN(S(C)(=O)=O)C2)c(C)s1 (centres unmarked) [CBK305464]")
"N"
>>> group_label("COc1cccc(C2(O)CCCC3CN(C(C)=O)CC32)c1 (centres unmarked) [CBK283242]")
"Y"
>>> group_label("CCN(CC)CCNC(=O)c1c(O)c2ccccc2n(Cc2ccccc2)c1=O [CBK291199]")
"N"
>>> group_label("COC(=O)[C@H]1CN(C(=O)c2ccco2)C[C@@H]1c1ccc(F)cc1 [CBK283733]")
"Y"
>>> group_label("COc1ccccc1-c1ccc(Nc2ccccc2)nc1 [CBK036909]")
"Y"
>>> group_label("CCn1ncc2c(C(=O)NC(C)COC)cc(-c3cccs3)nc21 (centres unmarked) [CBK304955]")
"Y"
>>> group_label("CCn1cc(C(=O)N[C@H](C(=O)O)C(C)C)c(=O)c2cc3c(cc21)OCO3 [CBK286786]")
"N"
>>> group_label("CN(C)S(=O)(=O)N(CC(=O)Nc1ccccc1C(F)(F)F)c1ccccc1 [CBK268665]")
"N"
>>> group_label("Cn1c(=O)c2c(nc(CN3CCCCC3)n2CCCc2ccccc2)n(C)c1=O [CBK269521]")
"N"
>>> group_label("OCC[C@H]1CN2CCCC2CN1Cc1cccn1-c1ccccc1F (some centres unmarked) [CBK282977]")
"N"
>>> group_label("Cc1oc2c(c1C(=O)NCCn1ccnc1C)CCCC2 [CBK281898]")
"N"
>>> group_label("O=C(Nc1c(F)cccc1F)N(Cc1ccc2ccccc2c1)CC1CCNCC1 [CBK119480]")
"N"
>>> group_label("O=C(Nc1ccc(C(F)(F)F)cc1)N1CCC(n2c(=O)[nH]c3ccccc32)CC1 [CBK149847]")
"Y"
>>> group_label("CCNC(=O)C1(NC(=O)Cc2cn3cccc(C)c3n2)CCCCC1 [CBK304933]")
"N"
>>> group_label("O=C(O)CCC(=O)Nc1ccc(NC(=O)c2ccccc2)c(Cl)c1 [CBK263478]")
"Y"
>>> group_label("O=C(Nc1cncc(OC2CCNCC2)n1)C1CCC1 [CBK026728T]")
"Y"
>>> group_label("Cn1nc(C(=O)N2Cc3cnn(Cc4ccc(F)cc4)c3C2)ccc1=O [CBK306855]")
"Y"
>>> group_label("COc1ccc(NC(=O)c2csc(Nc3ccccc3)n2)cc1OC [CBK287840]")
"Y"
>>> group_label("O=C(CN1CCN(c2nc3cc(Cl)ccc3s2)CC1)c1ccc2c(c1)OCCCO2 [CBK074737]")
"N"
>>> group_label("O=C(O)c1ccccc1SC(C[N+](=O)[O-])c1ccccc1Cl (centres unmarked) [CBK097071]")
"N"
>>> group_label("CCOC(=O)Cc1csc(NS(=O)(=O)/C=C/c2ccccc2)n1 [CBK000072]")
"N"
>>> group_label("CC(=O)c1cccc(-c2ccc3c(c2)C(=O)NC2(CCN(C(=O)OC(C)(C)C)CC2)O3)c1 [CBK131969]")
"N"
>>> group_label("COc1cc(OC)cc(C(=O)N2CCC3(CC2)CC(=O)c2cc(C)c(C)cc2O3)c1 [CBK164201]")
"Y"
>>> group_label("CC(C)(C)c1ccc(-c2cc(C3CCNCC3)n[nH]2)cc1 [CBK270240]")
"N"
>>> group_label("Cc1nn(CCn2cncc2-c2cnn(C)c2)c(C)c1C [CBK281783]")
"Y"
>>> group_label("CC1CN(C(=O)NC2CC2)C(C)CN1CCCC(c1ccc(F)cc1)c1ccc(F)cc1 (centres unmarked) [CBK024927C]")
"N"
>>> group_label("COc1ccc(S(=O)(=O)N(CC(=O)Nc2ccc(F)cc2)c2ccccc2)cc1 [CBK264141]")
"N"
>>> group_label("c1ccc(-c2nc(-c3ccncc3)[nH]c2-c2ccccc2)cc1 [CBK291155]")
"Y"
>>> group_label("O=C(O)CNC1=NC2(CCCCC2)Cc2ccccc21 [CBK287001]")
"Y"
>>> group_label("Cn1c(S)nnc1-c1ccccc1O [CBK014577]")
"N"
>>> group_label("O=C(O)CCNc1c(C(=O)O)cnc2ccccc12 [CBK261139]")
"Y"
